Test system: NCI-H226 lung
Assay Name: NCI tumour cell line growth inhibition, 48 h
Measured Property: TGI (µM)
Unit µM implied. Number only.

In the examples that follow, each entry is paired with its recorded TGI.
input: Any idea what TGI came out for `C=C1C(=O)O[C@H]2[C@H]1CC/C(COC(=O)NCc1c[nH]c3ccc(Br)cc13)=C\CC[C@@]1(C)O[C@@H]21` on NCI-H226 lung?
output: 3.07

input: Any idea what TGI came out for `Brc1cccc(Nc2ncnc3sc4c(c23)CCC2(C4)OCCO2)c1` on NCI-H226 lung?
output: 77.6

input: Any idea what TGI came out for `CN(C)CCn1c(=O)nc2c3c(c([N+](=O)[O-])ccc31)Nc1ccc(O)cc1-2` on NCI-H226 lung?
output: 20.8

input: Any idea what TGI came out for CC1CN=C(c2cccc(-c3ccc(-c4ccccc4)o3)c2)N1 (centres undefined) on NCI-H226 lung?
output: 39.4

Okay, now this compound:
input: Any idea what TGI came out for `CCN1C2=C(SC(=S)C1=C1SC(C(=O)OC)=C(C(=O)OC)S1)SC(=Nc1ccc(OC)cc1)C2=O` on NCI-H226 lung?
output: 5.26
